Data provenance is patent US9546157B2.

molecular target: GHSR1a (Homo sapiens); experiment: Calcium FLIPR assay, GHSR-1a antagonism (reduction of ghrelin response); settings: HEK293/GHSR1a cells, ghrelin 10 nM
Sequence (Q92847 whole entry): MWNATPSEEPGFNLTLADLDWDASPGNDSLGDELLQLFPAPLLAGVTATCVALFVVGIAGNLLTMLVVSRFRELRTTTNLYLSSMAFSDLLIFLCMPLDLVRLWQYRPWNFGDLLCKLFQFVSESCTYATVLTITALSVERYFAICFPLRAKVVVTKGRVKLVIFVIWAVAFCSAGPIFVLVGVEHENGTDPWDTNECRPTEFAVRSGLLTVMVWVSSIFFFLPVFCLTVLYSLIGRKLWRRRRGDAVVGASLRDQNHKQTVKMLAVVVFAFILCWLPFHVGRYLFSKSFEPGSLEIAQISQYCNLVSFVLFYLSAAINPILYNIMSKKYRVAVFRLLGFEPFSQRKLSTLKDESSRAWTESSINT
Catalogue of compounds with associated IC50
Respond with the bare value in nM.

>  <compound>
C#Cc1ccc(C(C)NC(=O)N(OC)C2CCN(C)CC2)c(Cl)c1Cl (centres unmarked)

>  <IC50 (nM)>
54

$$$$

Notebook: CC(NC(=O)N(C)C1CCN(C)CC1)c1ccc(C#Cc2nccs2)c(Cl)c1Cl (centres unmarked) , IC50 read as 11

Record CC(NC(=O)N(C)C1CCN(C)CC1)c1ccc(-c2cnc3[nH]ccc3c2)c(Cl)c1Cl (centres unmarked) . Reported IC50: 16

The recorded IC50 for CC#Cc1ccc(C(C)NC(=O)N(C)C2CCN(C)CC2)c(Cl)c1Cl (centres unmarked) is 11
